tested on: 8XTBD luciferase reporter; experiment: YAP Reporter Assay; assay type: cell-based; details: Homo sapiens, HEK-293T; HEK293T cells stably transfected with 8XTBD luciferase reporter and pRLTK; 24-hr incubation; starting from 3 μM, 1:3 dilution, 10 points; read-out: Firefly Luciferase IC50
For each record, write down the corresponding IC50.

Please review the entries below; each comes with its answer.
>  <smiles_entry>
CC(C)(C)NS(=O)(=O)c1ccc(NC2CCCCC2)c(-c2nn[nH]n2)c1

>  <measured_parameter>
IC50

>  <result>
> 3000 nM

$$$$
>  <smiles_entry>
CNS(=O)(=O)c1ccc(Nc2cc(Cl)cc(Cl)c2)c(-c2cn(C)cn2)c1

>  <measured_parameter>
IC50

>  <result>
≤ 100 nM

$$$$
>  <smiles_entry>
CNS(=O)(=O)c1ccc(NC2CCCCC2)c(-c2nc(C)no2)c1

>  <measured_parameter>
IC50

>  <result>
100 to 1000 nM

$$$$

Please supply IC50 for each of the following items, keeping them in order.
1. CNS(=O)(=O)c1ccc(NC2CCCCC2)c(-c2nnn(Cc3ccccc3)n2)c1
2. CNS(=O)(=O)c1ccc(NC2CCCCC2)c(-c2nnn(C3CN(c4cccnc4)C3)n2)c1
3. CNS(=O)(=O)c1ccc(Nc2cccc(-c3ccccc3)c2)c(-c2nnn(C)n2)c1
4. CNS(=O)(=O)c1ccc(NC2CCCCC2)c(-c2ncccc2F)c1
5. CNS(=O)(=O)c1ccc(NC2CCCCC2)c(-c2nnn(C3CNC3)n2)c1

Completion:
1. ≤ 100 nM
2. 100 to 1000 nM
3. ≤ 100 nM
4. ≤ 100 nM
5. > 3000 nM

----------
tested on: 8XTBD luciferase reporter; experiment: YAP Reporter Assay; assay type: cell-based; settings: Homo sapiens, HEK-293T; HEK293T cells stably transfected with 8XTBD luciferase reporter and pRLTK; 24-hr incubation; starting from 3 μM, 1:3 dilution, 10 points; read-out: Firefly Luciferase IC50
pIC50: −log10 of the molar value.
For each record, write down the corresponding pIC50.

Please review the entries below; each comes with its answer.
>  <compound>
CNS(=O)(=O)c1ccc(NC2CCCCC2)c(-c2nnn(C3CCN(C(C)C)C3)n2)c1 (centres unmarked)

>  <pIC50>
5.52 to 6.00

$$$$
>  <compound>
CNS(=O)(=O)c1ccc(NC2CCCCC2)c(-c2nnn(C3CCN(S(C)(=O)=O)C3)n2)c1 (centres unmarked)

>  <pIC50>
< 5.52

$$$$
>  <compound>
CNS(=O)(=O)c1ccc(NC2CCCCC2)c(-c2nnn(C3CCCN(C(=O)OC(C)(C)C)C3)n2)c1 (centres unmarked)

>  <pIC50>
6.00 to 7.00

$$$$
>  <compound>
CS(=O)(=O)c1ccc(NC2CCCCC2)c(-n2cncn2)c1

>  <pIC50>
< 5.52

$$$$
>  <compound>
CC(C)(C)NS(=O)(=O)c1ccc(NC2CCCCC2)c(-c2nnn(CCO)n2)c1

>  <pIC50>
< 5.52

$$$$
>  <compound>
CNS(=O)(=O)c1ccc(Nc2cc(C(F)(F)F)cc(C(F)(F)F)c2)c(-c2cn(C)cn2)c1

>  <pIC50>
6.00 to 7.00

$$$$
>  <compound>
CNS(=O)(=O)c1ccc(NC2CCCCC2)c(-c2nnn(C3CCN(c4ccccc4)CC3)n2)c1

>  <pIC50>
< 5.52

$$$$

Kindly review the next compound as well.
// field: pIC50; key: CNS(=O)(=O)c1ccc(NC2CCCCC2)c(-c2nnnn2C2CCCN(C(=O)OC(C)(C)C)C2)c1 (centres unmarked) ; value = < 5.52
